Sourced from patent US20140213531A1

# assayed.system: T1, Chymotrypsin, from human pancreas (human, UniProt P17538 19-263)
# T1 construct: purified natural enzyme, bought
# T1 sequence (P17538 19-263): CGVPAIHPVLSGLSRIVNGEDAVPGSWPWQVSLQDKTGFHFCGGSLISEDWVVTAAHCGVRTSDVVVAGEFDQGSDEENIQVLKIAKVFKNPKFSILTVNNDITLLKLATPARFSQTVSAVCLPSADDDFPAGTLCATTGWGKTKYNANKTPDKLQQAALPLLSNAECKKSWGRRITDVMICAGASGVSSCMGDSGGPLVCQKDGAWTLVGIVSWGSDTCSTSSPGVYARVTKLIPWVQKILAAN
# assay.text: enzyme inhibition, pNA substrate
Bridges are numbered along the chain shown (N, C = ends). Primed or numbered codes have the meaning given here. [ ]: non-standard residue; d: D form. Pro(4NHCOPhe)″ = 4-benzamido-L-proline, (2S)-4-benzoylamino-pyrrolidine-2-carboxylic acid; Gly(octyl) = CCCCCCCC[C@H](N)C(=O)O; Pro(4NHCOPhe) = not defined here; Cha = N[C@@H](CC1CCCCC1)C(=O)O; Nle = CCCC[C@H](N)C(=O)O
experimental.readout: % inhibition at 100 µM (%)
Numbers only, in %.

The following binders have reported results that may help.
binder="cyclo([Nle]CTASIP[Pro(4NHCOPhe)″]QCY[dP]P) (disulfide 2-10) [Example 138]" reported=77.1
binder="XCTASIPPQCY (HELM PEPTIDE1{[Nle].C.T.A.S.I.P.P.Q.C.Y.[dP].F}$PEPTIDE1,PEPTIDE1,2:R3-10:R3|PEPTIDE1,PEPTIDE1,1:R1-13:R2$$$V2.0; SMILES CCCC[C@@H]1NC(=O)[C@H](Cc2ccccc2)NC(=O)[C@H]2CCCN2C(=O)[C@H](Cc2ccc(O)cc2)NC(=O)[C@@H]2CSSC[C@H](NC1=O)C(=O)N[C@@H]([C@@H](C)O)C(=O)N[C@@H](C)C(=O)N[C@@H](CO)C(=O)N[C@@H]([C@@H](C)CC)C(=O)N1CCC[C@H]1C(=O)N1CCC[C@H]1C(=O)N[C@@H](CCC(N)=O)C(=O)N2, also called Ex. 167) [Example 167]" reported=60.2

Count: 3. Required value per item: % inhibition at 100 µM.
1. cyclo([Gly(octyl)]CTAS[Cha]P[Pro(4NHCOPhe)]QCQ[dP]P) (disulfide 2-10; not fully specified; reading uncertain, also called Ex. 160) [Example 160]
2. XCTASIPPQCY (HELM PEPTIDE1{[Nle].C.T.A.S.I.P.P.Q.C.Y.[dP].P}$PEPTIDE1,PEPTIDE1,2:R3-10:R3|PEPTIDE1,PEPTIDE1,1:R1-13:R2$$$V2.0; SMILES CCCC[C@@H]1NC(=O)[C@@H]2CCCN2C(=O)[C@H]2CCCN2C(=O)[C@H](Cc2ccc(O)cc2)NC(=O)[C@@H]2CSSC[C@H](NC1=O)C(=O)N[C@@H]([C@@H](C)O)C(=O)N[C@@H](C)C(=O)N[C@@H](CO)C(=O)N[C@@H]([C@@H](C)CC)C(=O)N1CCC[C@H]1C(=O)N1CCC[C@H]1C(=O)N[C@@H](CCC(N)=O)C(=O)N2) [Example 179]
3. XCTASIPPQCY (HELM PEPTIDE1{[Nle].C.T.A.S.I.P.P.Q.C.Y.[dP].D}$PEPTIDE1,PEPTIDE1,2:R3-10:R3|PEPTIDE1,PEPTIDE1,1:R1-13:R2$$$V2.0; SMILES CCCC[C@@H]1NC(=O)[C@H](CC(=O)O)NC(=O)[C@H]2CCCN2C(=O)[C@H](Cc2ccc(O)cc2)NC(=O)[C@@H]2CSSC[C@H](NC1=O)C(=O)N[C@@H]([C@@H](C)O)C(=O)N[C@@H](C)C(=O)N[C@@H](CO)C(=O)N[C@@H]([C@@H](C)CC)C(=O)N1CCC[C@H]1C(=O)N1CCC[C@H]1C(=O)N[C@@H](CCC(N)=O)C(=O)N2, also called Ex. 168) [Example 168]

(A)
1. 94
2. 76
3. 72.9
